All values here come from PubChem BioAssay.

ASSAY_COMMENT: AML differentiation inducers, ER-HoxA9 marrow cells – cell-based, GFP/MAC1 double positive, flow cytometry, validation set, primary screen (AID 588685);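 further: compound exposure lasts four days before antibody staining and flow analysis; 0% = DMSO wells and 100% = 5 µM fulvestrant positive control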
ASSAY_SETUP: hits give high values, normalized: vehicle 0, fulvestrant 100
Activity calls are given as the source filed them.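 How the source made its calls: active means differentiation response of at least 50%, scaled between solvent and reference control, from cells with both markers; inactive means the rest.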
This section presents molecules with their documented differentiation response values.

{"MOLECULE": "CC(=O)CCc1c(C)c2cccc(C)c2[nH]c1=O", "differentiation response": "-18.4% (inactive)"}
{"MOLECULE": "COc1ccc2c(c1OC)C(=O)N1C2SC[C@H]1C(=O)NC1CC(C)(C)NC(C)(C)C1 (stereo not given in full)", "differentiation response": "30.3% (inactive)"}
{"MOLECULE": "CCOC(=O)C1=C(C)NC(C)=C(C(=O)OC)C1c1cccc(Cl)c1Cl (stereo not given)", "differentiation response": "0% (inactive)"}
{"MOLECULE": "Cc1c(NC(=O)c2cccs2)cccc1[N+](=O)[O-]", "differentiation response": "18.8% (inactive)"}
{"MOLECULE": "COc1ccc(-c2[nH]ncc2CN(CCO)Cc2cccs2)c(F)c1", "differentiation response": "-0.18% (inactive)"}
{"MOLECULE": "O=C(CN1CC[n+]2c(-c3cccs3)csc21)c1ccc(Br)cc1", "differentiation response": "-7.5% (inactive)"}
{"MOLECULE": "COc1ccc(CNCCC2(C(C)C)CCOC(C)(C)C2)cc1 (stereo not given)", "differentiation response": "0.24% (inactive)"}
{"MOLECULE": "COc1ccc(N2C(=O)[C@@H]3[C@H](C2=O)[C@H]2c4ccccc4C=CN2[C@@H]3C(C)=O)cc1", "differentiation response": "-3.11% (inactive)"}
{"MOLECULE": "CC(C)(S)[C@@H](N)C(=O)O", "differentiation response": "7.2% (inactive)"}
{"MOLECULE": "CC(=O)c1cc2c(cc1NC(=O)c1ccco1)OCCO2", "differentiation response": "-11.9% (inactive)"}
{"MOLECULE": "CC(=O)Oc1c2occc2cc2ccc(=O)oc12", "differentiation response": "10.4% (inactive)"}
{"MOLECULE": "Cc1cccc(Nc2ncccc2C(=O)O)c1C", "differentiation response": "-9.53% (inactive)"}
{"MOLECULE": "c1ccc2c(c1)CCOC2CNCCCN1CCCCC1 (stereo not given)", "differentiation response": "-3.28% (inactive)"}
{"MOLECULE": "O=C(O)c1ccccc1Nc1cccc(C(F)(F)F)c1", "differentiation response": "18.4% (inactive)"}
{"MOLECULE": "Cc1ccc(C(=O)O)cc1NC(=O)c1cccs1", "differentiation response": "0.41% (inactive)"}
{"MOLECULE": "Cc1ccc2c(ccc(=S)n2C)c1", "differentiation response": "1.22% (inactive)"}
{"MOLECULE": "CC(C)C(=O)Nc1c(O)c2ccccc2[nH]c1=O", "differentiation response": "-4% (inactive)"}
{"MOLECULE": "NC(N)=N/N=C/c1cccc(Cl)c1Cl", "differentiation response": "-18.4% (inactive)"}
{"MOLECULE": "COc1ccc2[nH]c3c(c2c1)CCNC3C1CC=C(C)CC1 (stereo not given)", "differentiation response": "0.82% (inactive)"}
{"MOLECULE": "O=C(NCCc1ccccc1)C1CCN(C2CCN(Cc3ccco3)CC2)CC1", "differentiation response": "-5.97% (inactive)"}
{"MOLECULE": "CCOC(=O)C1C(=O)OC(C)(C)C1C(C)C(=O)c1ccc(C)cc1 (stereo not given)", "differentiation response": "13.7% (inactive)"}
{"MOLECULE": "CC(C)=CC/C=C1\\CCC(C(=O)O)C(C(=O)O)C1 (stereo not given)", "differentiation response": "-2.46% (inactive)"}
{"MOLECULE": "COCCN(CCOC)Cc1c(C)[nH]c2c(C)c(C)ccc2c1=O", "differentiation response": "-10.4% (inactive)"}
{"MOLECULE": "O=C(O)c1cc2cc(Cl)cc(Cl)c2oc1=O", "differentiation response": "27.8% (inactive)"}
{"MOLECULE": "CCN(CC)C(=O)c1sc(NC(=O)c2c(OC)cccc2OC)c(C#N)c1C", "differentiation response": "5.67% (inactive)"}
